Assay: cell-permeable autofluorescent compounds in GFP channel, dose response, artefact control, imaging, high-content imaging (AID 2124);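 note: cells exposed to compound for 48 hours before fixing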
Conditions: cells, GFP-channel autofluorescence, high-content imaging; cell count; at 10 µM
Results filed as inconclusive are left out.
Parameter: cell count

substance_smiles=N#C/C(=C/c1ccc(N2CCCCC2)o1)C(=O)Nc1ccc(Cl)cc1 result="2990 cells"
substance_smiles=CNC(=O)c1ccc(-c2sc3nc(N4CCOCC4)c4c(c3c2N)CC(C)(C)OC4)o1 result="2290 cells"
substance_smiles=COc1ccc(-n2c(Cc3cccn3C)nnc2SCC(=O)Nc2cccc(C)c2C)cc1 result="3130 cells"
substance_smiles=Cc1nnc(NC(=O)c2sc3nc(-c4cccs4)cc(C(F)(F)F)c3c2N)s1 result="2610 cells"
substance_smiles=COC(=O)[C@@H](NC(=O)Nc1cccc(OC)c1)C(C)C result="3030 cells"
substance_smiles=CC(=O)c1c(C)[nH]c(-c2ccccc2)nc1=S result="3120 cells"
substance_smiles=CCN(CC)c1ccc2cc(S(=O)(=O)c3ccc(Cl)cc3)c(=O)oc2c1 result="2590 cells"
substance_smiles=Cc1ccccc1C(=O)N1CCc2ccccc2C1 result="3270 cells"
substance_smiles=CN1CCN(C(=O)/C(=C\c2cccs2)NC(=O)c2cccs2)CC1 result="3070 cells"
substance_smiles=O=C(NCc1cccs1)c1ccc(N2CCCCC2)nc1 result="2760 cells"
substance_smiles=Cc1ccc(N2C(=O)c3cccc4c(N5CCN(C)CC5)ccc(c34)C2=O)c2cccnc12 result="1800 cells"
